The values you see were collected from paper PMC3199943.

Test system: A549 cells
Assay: Cytotoxicity against A549 cells, Alamar Blue
Assay type: cell-based
Conditions: Homo sapiens, A549, 65 h; Supplementary Table 1; compound 0.5 mM; percentage of controls (n=1)
property: viability at 500 µM (%)

> print(dat)
                                   compound  result.value
1  O=C(O)c1cc2ccccc2cn1 [compound 555, isoquinoline‐3‐carboxylic acid hydrate]           100
2                      Nc1cccc(Oc2ccccn2)c1          72.5
3                       Oc1cccc(N2CCOCC2)c1          62.8
4  CCOC(=O)C1CSCCN1 (centres unmarked) [compound 402, ethyl thiomorpholine‐3‐carboxylate]          95.2
5                        CCc1cccc(C(C)=O)c1          79.2
6                        Cn1ccc2ccc(CO)cc21          47.8
7  O=C1CCOCC1 [compound 12, tetrahydro‐4H‐pyran‐4‐one]          97.4
8  OCc1ccc(CN2CCCCC2)cc1 [compound 669, [4‐(piperidin‐1‐ylmethyl)phenyl]methanol]           121

---

Test system: A549 cells
Assay: Cytotoxicity against A549 cells, Alamar Blue
Format: cell-based
Conditions: Homo sapiens, A549, 65 h; Supplementary Table 1; compound 0.5 mM; percentage of controls (n=1)
Consider the reported viability at 500 µM of an entry and match it to a band in A (below 70%), B (70% to below 90%), C (90% or more)

> print(dat)
                                    compound  category.label
 1                      N#Cc1ccccc1OC(F)(F)F               C
 2                             O=C(O)c1ccoc1               C
 3                            Nc1ccc2occc2c1               C
 4                         Cc1cc(N)c(N)cc1Cl               A
 5  CC(C)(C)OC(=O)Nc1ccsc1 [compound 619, tert‐butyl N‐(3‐thienyl)carbamate]               B
 6  CC1OCCC1=O (centres unmarked) [compound 11, 2‐methyltetrahydrofuran‐3‐one]               B
 7                           CCc1nc(C)c[nH]1               B
 8                           CSc1ccc(Cl)cc1N               A
 9  FC(F)(F)c1nc2ccccc2[nH]1 [compound 499, 2‐(trifluoromethyl)‐1H‐benzo[d]imidazole]               C
10           CC1CNC(C)CN1 (centres unmarked)               B
11                      O=C(O)c1ccc2ncccc2c1               C
12  COC(=O)C1Cc2ccccc2N1 (centres unmarked) [compound 422, methyl 2‐indolinecarboxylate]               A
13  N#Cc1ccc(O)cc1F [compound 120, 2‐fluoro‐4‐hydroxybenzonitrile]               B
14                   Cc1cc(CO)c(-c2ccccc2)o1               A

---

Overview of reported viability at 500 µM across a group of compounds:
System: A549 cells
Experiment: Cytotoxicity against A549 cells, Alamar Blue
Assay type: cell-based
Settings: Homo sapiens, A549, 65 h; Supplementary Table 1; compound 0.5 mM; percentage of controls (n=1)
property: viability at 500 µM (%)

> print(dat)
                                   compound  study.target  result.value
1                             Cc1cccc(CO)n1    A549 cells          67.5
2                  O=C(O)c1ccc(-c2ccccn2)s1    A549 cells          94.1
3                   O=C(O)Cc1c[nH]c2ccccc12    A549 cells           134
4  OCc1ccc(-n2cccc2)cc1 [compound 372, [4-(1H-pyrrol-1-yl)phenyl]methanol]    A549 cells          52.9

---

Molecular target: TbINO1 (Trypanosoma brucei brucei, UniProt Q5QQ46)
Sequence (Q5QQ46 whole entry): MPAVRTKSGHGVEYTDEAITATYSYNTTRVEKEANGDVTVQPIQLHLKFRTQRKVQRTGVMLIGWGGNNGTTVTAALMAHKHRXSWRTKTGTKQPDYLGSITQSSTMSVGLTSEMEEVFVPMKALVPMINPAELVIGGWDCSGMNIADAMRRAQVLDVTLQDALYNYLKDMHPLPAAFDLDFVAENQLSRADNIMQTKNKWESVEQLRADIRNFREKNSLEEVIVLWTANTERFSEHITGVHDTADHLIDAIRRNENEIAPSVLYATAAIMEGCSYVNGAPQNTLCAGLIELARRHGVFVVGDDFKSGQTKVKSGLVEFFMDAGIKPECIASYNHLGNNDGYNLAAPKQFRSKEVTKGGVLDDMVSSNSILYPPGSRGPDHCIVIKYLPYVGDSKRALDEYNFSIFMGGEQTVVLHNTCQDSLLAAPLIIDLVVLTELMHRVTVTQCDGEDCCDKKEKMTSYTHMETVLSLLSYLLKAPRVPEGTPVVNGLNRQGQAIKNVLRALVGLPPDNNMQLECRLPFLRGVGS
Experiment: biochemical
Format: binding
Conditions: Supplementary Table 1; compound 1mM; mean ± SD from Boltzman curve fitting; read-out: Tb Ino1 Tm Shift [˚C]
Threshold-based label: ΔTm at 1000 µM under 0.3 °C gives Y, ΔTm at 1000 µM not under 0.3 °C gives N.

> print(dat)
                                   compound                              study.target  category.label
1  O=C(O)c1ccc2cc[nH]c2c1 [compound 271, 1H‐indole‐6‐carboxylic acid]  TbINO1 (Trypanosoma brucei brucei, UniProt Q5QQ46)               Y
2  N#CCc1ccc(O)cc1 [compound 98, 2‐(4‐hydroxyphenyl)acetonitrile]  TbINO1 (Trypanosoma brucei brucei, UniProt Q5QQ46)               Y
3  N#Cc1ccc(F)cc1 [compound 51, 4‐fluorobenzonitrile]  TbINO1 (Trypanosoma brucei brucei, UniProt Q5QQ46)               Y
4  COc1ccc(OC)c(CN)c1 [compound 329, 2,5‐dimethoxybenzylamine]  TbINO1 (Trypanosoma brucei brucei, UniProt Q5QQ46)               N
5  Cc1cccc(C)c1C#N [compound 94, 2,6‐dimethylbenzonitrile]  TbINO1 (Trypanosoma brucei brucei, UniProt Q5QQ46)               N
6  NCCc1cccs1 [compound 81, 2‐(2‐thienyl)ethylamine]  TbINO1 (Trypanosoma brucei brucei, UniProt Q5QQ46)               Y
7  CN1CCN(c2ccccc2N)CC1 [compound 561, 2‐(4‐methylpiperazin‐1‐yl)aniline]  TbINO1 (Trypanosoma brucei brucei, UniProt Q5QQ46)               N
8  CNCc1ccccc1-c1cccs1 [compound 646, N‐methyl‐N‐(2‐thien‐2‐ylbenzyl)amine]  TbINO1 (Trypanosoma brucei brucei, UniProt Q5QQ46)               Y
9      CN1CCN(Cc2ccccc2N)CC1 [compound 670]  TbINO1 (Trypanosoma brucei brucei, UniProt Q5QQ46)               Y

---

Tested on: A549 cells
Test: Cytotoxicity against A549 cells, Alamar Blue
Assay type: cell-based
Details: Homo sapiens, A549, 65 h; Supplementary Table 1; compound 0.5 mM; percentage of controls (n=1)
Catalogue of viability at 500 µM readings, one per entry.
property: viability at 500 µM

> print(dat)
                                    compound  result.value
 1   Cc1nc(-c2ccc(C#N)cc2)cs1 [compound 625]         79.4%
 2  Cc1ccc2oc(=O)ccc2c1 [compound 265, 6‐methyl‐2H‐chromen‐2‐one]         63.8%
 3             Cc1csc(CC#N)n1 [compound 126]         98.4%
 4  O=C1N[C@@H](Cc2ccccc2)CO1 [compound 421, (S)‐4‐BENZYL‐2‐OXAZOLIDINONE]         80.2%
 5  Cc1nc(C(N)=S)c[nH]1 [compound 135, 2-methyl-1H-imidazole-4-carbothioamide]          102%
 6  Cc1cc(C)on1 [compound 4, 3,5‐dimethylisoxazole]          123%
 7  OCc1cn2ccsc2n1 [compound 221, imidazo[2,1‐b]thiazol‐6‐ylmethanol]         99.5%
 8  Cc1nnc(N)s1 [compound 39, 5‐methyl‐1,3,4‐thiadiazol‐2‐amine]         72.3%
 9  OCc1cccc2c1OCO2 [compound 203, 1,3‐benzodioxol‐4‐ylmethanol]         60.8%
10  O=C(O)c1cccs1 [compound 85, thiophene‐2‐carboxylic acid]          119%
11  N#Cc1ccsc1N [compound 68, 2‐aminothiophene‐3‐carbonitrile]          136%
12  NC(=O)Cc1ccc(F)cc1Cl [compound 519, 2‐(2‐chloro‐4‐fluorophenyl)acetamide]          102%
13  NCc1ccc(-c2ccco2)cc1 [compound 373, [4‐(2‐furyl)phenyl]methylamine]         63.4%
14  OCc1cccc(-c2cncnc2)c1 [compound 504, (3‐pyrimidin‐5‐ylphenyl)methanol]         88.2%
15  Nc1cccc(COc2ccccc2)c1 [compound 616, 3‐(phenoxymethyl)aniline]         57.5%
16  CCc1cccc(C)n1 [compound 52, 2‐ethyl‐6‐methylpyridine]         70.8%
17  CSc1ccccc1CN [compound 217, 2‐(methylthio)benzylamine]         70.3%
18  CNCc1ccc(-c2ccccn2)cc1 [compound 607, N‐methyl‐N‐(4‐pyridin‐2‐ylbenzyl)amine]         71.5%
